Recorded values, source patent US4304833A.

Item-by-item account of Wavelength (λmax-nm)
Assay: bleaching rate (T 1/2) at pH=12 in buffer, visible spectrometer
Type: physicochemical
Details: pH=12 buffer
Give the number; nm is assumed, so skip it.

Answered cases to consult:
compound_smiles=CC1=CC(=C(c2cc(C)c(O)c(C)c2)c2ccccc2S(=O)(=O)N(C)C(=O)OCCS(C)(=O)=O)C=C(C)C1=O test_readout="Wavelength (λmax-nm)" result_value=590
compound_smiles=COC1=CC(=C(c2cc(OC)c(O)c(OC)c2)c2ccccc2S(=O)(=O)N(C)C(=O)OCCS(C)(=O)=O)C=C(OC)C1=O test_readout="Wavelength (λmax-nm)" result_value=640
compound_smiles=COC1=CC(=C(c2cc(OC)c(O)c(OC)c2)c2ccccc2S(=O)(=O)N(C)C(C)=O)C=C(OC)C1=O test_readout="Wavelength (λmax-nm)" result_value=640
compound_smiles=COC1=CC(=C(c2cc(OC)c(O)c(OC)c2)c2ccccc2COC(=O)COc2ccccc2)C=C(OC)C1=O test_readout="Wavelength (λmax-nm)" result_value=640

Field: next compound
Tell us which Wavelength (λmax-nm) value is on record for COCC(=O)OCc1ccccc1C(=C1C=C(OC)C(=O)C(OC)=C1)c1cc(OC)c(O)c(OC)c1
640
